# measured_on: Human BCMA (human) (UniProt Q02223)
# experimental_details: SPR, IgG on chip, huBCMA analyte
measurement_name: Kd
Provide the measurement as a number trailed by its unit.

| binder | Kd |
| --- | --- |
| A02_Rd4_6nM_C23 (antibody, V domains shown, IgG) VH: EVQLLESGGGLVQPGGSLRLSCAASGFTFSSYAMNWVRQAPGKGLEWVSAISDSGGSGWYADSVKGRFTISRDNSKNTLYLQMNSLRAEDTAVYYCARYWPMSLWGQGTLVTVSS VL: EIVLTQSPGTLSLSPGERATLSCRASQSVSVEYLAWYQQKPGQAPRLLMYDASIRATGIPDRFSGSGSGTDFTLTISRLEPEDFAVYYCQQYARWPLTFGQGTKVEIK | 21 pM |

Input line: Please report the measured Kd for COMBO_Rd4_6nM_C22 (antibody, V domains shown, IgG) VH: EVQLLESGGGLVQPGGSLRLSCAASGFTFSSYAMNWVRQAPGKGLEWVSACLDSGGSTYYADSVKGRFTISRDNSKNTLYLQMNSLRAEDTAVYYCARYWPMDSWGQGTLVTVSS VL: EIVLTQSPGTLSLSPGERATLSCRASQSVSSSYLAWYQQKPGQAPRLLMYDASIRATGIPDRFSGSGSGTDFTLTISRLEPEDFAVYYCQQYQGWPLTFGQGTKVEIK
Output line: 256 pM
